The values you see were collected from ChEMBL document CHEMBL5316284.

Form field: fraction unbound at 4 h, 10 ug/ml (one value per entry).
- assay-name: Plasma protein binding in human at 10 ug/ml incubated for 4 hrs under shaking condition by LC/MS/MS analysis
- Format: ADME, cell-free
- test-parameters: at 10 µg/mL, read-out: PPB (converted)

Illustrative cases are given below, each with its answer.
[[record]]
compound = "O=C(CNc1cccc(Br)c1)NC12CC3CC(CC(C3)C1)C2"
property_label = "fraction unbound at 4 h, 10 ug/ml"
result_value = 0.068

[[record]]
compound = "O=C(CNc1ccc(OC(F)(F)F)cc1)NC12CC3CC(CC(C3)C1)C2"
property_label = "fraction unbound at 4 h, 10 ug/ml"
result_value = 0.002

[[record]]
compound = "C[C@@H]1[C@H]2C[C@@H](C[C@H]1NC(=O)CNc1ccccc1Cl)C2(C)C"
property_label = "fraction unbound at 4 h, 10 ug/ml"
result_value = 0.045


fraction unbound at 4 h, 10 ug/ml for C[C@@H]1[C@H]2C[C@@H](C[C@H]1NC(=O)CNc1cccc(Cl)c1)C2(C)C ? 0.059

fraction unbound at 4 h, 10 ug/ml for C[C@@H]1[C@H]2C[C@@H](C[C@H]1NC(=O)CNc1cccc(Br)c1)C2(C)C ? 0.045

fraction unbound at 4 h, 10 ug/ml for O=C(CNc1ccc(OC(F)(F)F)cc1)NC1C2CC3CC(C2)CC1C3 (centres undefined) ? 0.033

fraction unbound at 4 h, 10 ug/ml for O=C(CNc1ccc(Br)cc1)NC12CC3CC(CC(C3)C1)C2 ? 0.004

fraction unbound at 4 h, 10 ug/ml for O=C(CNc1cccc(OC(F)(F)F)c1)NC12CC3CC(CC(C3)C1)C2 ? 0.051

fraction unbound at 4 h, 10 ug/ml for C[C@@H]1[C@H]2C[C@@H](C[C@H]1NC(=O)CNc1ccc(OC(F)(F)F)cc1)C2(C)C ? 0.048

====

Form field: t1/2 (one value per entry).
- assay-name: Metabolic stability in human liver S9 fraction assessed as parent compound remaining at 5 ug/ml after 90 mins in presence of NADPH by LC/MS analysis
- Type: ADME, subcellular
- test-parameters: s9, 1.5 h, dose 5 µg/ml
Hey, just the number and the unit after it is fine.

[[record]]
compound = "O=C(CNc1ccc(OC(F)(F)F)cc1)NC1C2CC3CC(C2)CC1C3 (configuration not stated)"
result_value = "5.9 h"

[[record]]
compound = "O=C(CNc1ccc(C(F)(F)F)cc1)NC1C2CC3CC(C2)CC1C3 (configuration not stated)"
result_value = "5.8 h"

[[record]]
compound = "C[C@@H]1[C@H]2C[C@@H](C[C@H]1NC(=O)CNc1cccc(Cl)c1)C2(C)C"
result_value = "5.3 h"

[[record]]
compound = "O=C(CNc1cccc(Cl)c1)NC12CC3CC(CC(C3)C1)C2"
result_value = "5.6 h"


t1/2 for O=C(CNc1cccc(Br)c1)NC12CC3CC(CC(C3)C1)C2 ? 0.5 h

t1/2 for O=C(CNc1cccc(OC(F)(F)F)c1)NC12CC3CC(CC(C3)C1)C2 ? 0.7 h

t1/2 for O=C(CNc1ccc(Br)cc1)NC12CC3CC(CC(C3)C1)C2 ? 2.5 h

====

Form field: permeability (one value per entry).
- assay-name: Permeability of the compound by PAMPA method
- Type: ADME

Illustrative cases are given below, each with its answer.
[[record]]
compound_string = "O=C(CNc1ccc(Br)cc1)NC12CC3CC(CC(C3)C1)C2"
property_label = "permeability"
result_value = "0.28 10^-6 cm/s"

[[record]]
compound_string = "O=C(CNc1cccc(Cl)c1)NC12CC3CC(CC(C3)C1)C2"
property_label = "permeability"
result_value = "0.32 10^-6 cm/s"

[[record]]
compound_string = "O=C(CNc1cccc(OC(F)(F)F)c1)NC12CC3CC(CC(C3)C1)C2"
property_label = "permeability"
result_value = "3.61 10^-6 cm/s"

[[record]]
compound_string = "Cc1cc(C)c2cc(C(=O)NC3CCCCCCC3)[nH]c2c1"
property_label = "permeability"
result_value = "0.18 10^-6 cm/s"

[[record]]
compound_string = "C[C@@H]1[C@H]2C[C@@H](C[C@H]1NC(=O)CNc1cccc(Cl)c1)C2(C)C"
property_label = "permeability"
result_value = "1.33 10^-6 cm/s"

[[record]]
compound_string = "CNC(=C[N+](=O)[O-])NCCSCc1ccc(CN(C)C)o1"
property_label = "permeability"
result_value = "3.47 10^-6 cm/s"

[[record]]
compound_string = "C[C@@H]1[C@H]2C[C@@H](C[C@H]1NC(=O)CNc1cccc(Br)c1)C2(C)C"
property_label = "permeability"
result_value = "1.01 10^-6 cm/s"


permeability for C[C@@H]1[C@H]2C[C@@H](C[C@H]1NC(=O)CNc1ccc(OC(F)(F)F)cc1)C2(C)C ? 3.19 10^-6 cm/s

====

- assay-name: Plasma protein binding in human at 10 ug/ml incubated for 4 hrs under shaking condition by LC/MS/MS analysis
- Format: ADME, cell-free
- test-parameters: at 10 µg/mL, read-out: PPB (converted)
property-label: fraction unbound at 4 h, 10 ug/ml

[[record]]
molecule = "CNC(=C[N+](=O)[O-])NCCSCc1ccc(CN(C)C)o1"
result_value = 0.793


fraction unbound at 4 h, 10 ug/ml for Cc1cc(C)c2cc(C(=O)NC3CCCCCCC3)[nH]c2c1 ? 0.018

fraction unbound at 4 h, 10 ug/ml for O=C(CNc1cccc(Cl)c1)NC12CC3CC(CC(C3)C1)C2 ? 0.002

fraction unbound at 4 h, 10 ug/ml for O=C(CNc1ccc(C(F)(F)F)cc1)NC1C2CC3CC(C2)CC1C3 (centres undefined) ? 0.057

====

Form field: MIC (one value per entry).
- System: Mycobacterium kansasii
- assay-name: Antimycobacterial activity against Mycobacterium kansasii ATCC 1279 assessed as inhibition of bacterial growth by visual analysis
- Format: functional
Provide only the numeric value, understood in µg/mL.

[[record]]
compound_string = "C[C@@H]1[C@H]2C[C@@H](C[C@H]1NC(=O)CNc1cccc(Cl)c1)C2(C)C"
result_value = 8

[[record]]
compound_string = "O=C(CNc1cccc(OC(F)(F)F)c1)NC12CC3CC(CC(C3)C1)C2"
result_value = 8

[[record]]
compound_string = "C[C@@H]1[C@H]2C[C@@H](C[C@H]1NC(=O)CNc1ccccc1Cl)C2(C)C"
result_value = 16


MIC for C[C@@H]1[C@H]2C[C@@H](C[C@H]1NC(=O)CNc1cccc(Br)c1)C2(C)C ? 8

====

Form field: selectivity ratio (one value per entry).
- assay-name: Selectivity index, ratio of IC50 for Cytotoxicity against human WI26VA4 cells to MIC for antimycobacterial activity against Mycobacterium tuberculosis H37Rv mc2 6206
- Type: toxicity, cell-based
- test-parameters: read-out: Selectivity Index

Illustrative cases are given below, each with its answer.
[[record]]
compound = "Cc1cc(C)c2cc(C(=O)NC3CCCCCCC3)[nH]c2c1"
result_value = "> 764"

[[record]]
compound = "O=C(CNc1ccc(Br)cc1)NC12CC3CC(CC(C3)C1)C2"
result_value = "> 2.5"

[[record]]
compound = "O=C(CNc1cccc(Cl)c1)NC12CC3CC(CC(C3)C1)C2"
result_value = "> 20"

[[record]]
compound = "O=C(CNc1ccc(C(F)(F)F)cc1)NC1C2CC3CC(C2)CC1C3 (configuration not stated)"
result_value = "> 10"

[[record]]
compound = "O=C(CNc1cccc(Br)c1)NC12CC3CC(CC(C3)C1)C2"
result_value = "> 20"

[[record]]
compound = "C[C@@H]1[C@H]2C[C@@H](C[C@H]1NC(=O)CNc1ccccc1Cl)C2(C)C"
result_value = "> 80"


Now for a further compound.
selectivity ratio for C[C@@H]1[C@H]2C[C@@H](C[C@H]1NC(=O)CNc1cccc(Br)c1)C2(C)C ? > 40

====

Form field: t1/2 (one value per entry).
- assay-name: Metabolic stability in human liver S9 fraction assessed as parent compound remaining at 5 ug/ml after 90 mins in presence of NADPH by LC/MS analysis
- Assay type: ADME, subcellular
- test-parameters: s9, 1.5 h, dose 5 µg/ml
Hey, just the number and the unit after it is fine.

t1/2 for C[C@@H]1[C@H]2C[C@@H](C[C@H]1NC(=O)CNc1ccc(OC(F)(F)F)cc1)C2(C)C ? 9.2 h

t1/2 for O=C(CNc1ccc(OC(F)(F)F)cc1)NC12CC3CC(CC(C3)C1)C2 ? 3.1 h

t1/2 for C[C@@H]1[C@H]2C[C@@H](C[C@H]1NC(=O)CNc1ccccc1Cl)C2(C)C ? 5.1 h

t1/2 for Cc1cc(C)c2cc(C(=O)NC3CCCCCCC3)[nH]c2c1 ? 0.5 h

t1/2 for C[C@@H]1[C@H]2C[C@@H](C[C@H]1NC(=O)CNc1cccc(Br)c1)C2(C)C ? 4.2 h
